What MYO AVG [Fold Change] was measured for each of the following?
- Tested on: primary human skeletal myotubes (MYOs)
- Experiment notes: IRES screening (Table 28), Gaussia luciferase LNP-oRNA in primary human skeletal myotubes (MYOs)
- Test conditions: protein expression relative to positive control (SEQ ID NO 3282 = 1)
The answer should read as a number with its unit following.

Molecule: CCCCCCCCC(CCCCCC)C(=O)OCCCCCCN(CCCCCCOC(=O)C(CCCCCC)CCCCCCCC)CCCCOC(C)=O (stereo not shown)
MYO AVG [Fold Change]: 0.3574 Fold Change

Molecule: CCCCC(CC)C(=O)OCCCCCCCCCN(CCCO)CCCCCCCCCOC(=O)C(CC)CCCC (stereo not shown)
MYO AVG [Fold Change]: 0.11 Fold Change

Molecule: CCCCCCCCCCC(CCCCCCCC)C(=O)OCCCCCCN(CCCCO)CCCCCCOC(=O)C(CCCCCCCC)CCCCCCCCCC (stereo not shown)
MYO AVG [Fold Change]: 0.002759 Fold Change

Molecule: CCCCCCCCC(CCCCCC)C(=O)OCCCCCCN(CCCCCCOC(=O)C(CCCCCC)CCCCCCCC)CC(O)CO (stereo not shown)
MYO AVG [Fold Change]: 0.1967 Fold Change

Molecule: CCCCCCCCC(CCCCCC)C(=O)OCCCCCCN(CCCCCCOC(=O)C(CCCCCC)CCCCCCCC)C(CC)CO (stereo not shown)
MYO AVG [Fold Change]: 0.5881 Fold Change

For each of the items listed, what is its MYO AVG [Fold Change]?
1. CCCCCCCCC(CCCCCC)COC(=O)CCCCCN(CCCCCC(=O)OCC(CCCCCC)CCCCCCCC)CCCC(=O)OCC (stereo not shown)
2. CCCCCCC(CCCC)C(=O)OCCCCCCCCCN(CCCCO)CCCCCCCCCOC(=O)C(CCCC)CCCCCC (stereo not shown)

1. 0.0002919 Fold Change
2. 0.0738 Fold Change
